# measurement.notes: in vivo
# test.conditions: female, SCID, mouse, plasma, po
measured.property: half-life (h)
Provide the reading as a plain figure in h.

Query: // half-life lookup, key: CCC1(O)C(=O)OCc2c1cc1n(c2=O)Cc2cc3cc4c(cc3nc2-1)OCO4 (stereo not shown) [FL118]
Response: 5.12

* * *

# measurement.notes: in vitro
# test.conditions: both, human, s9, CLint (intrinsic clearance), calculated (in parentheses), human liver S9 fraction
measured.property: microsomal CLint at 0.5 μM (µL/min/mg)
Please reply with the bare figure in µL/min/mg and do not write the unit itself.

Query: Which microsomal CLint at 0.5 μM value belongs to CCC1(O)C(=O)OCc2c1cc1n(c2=O)Cc2cc3cc4c(cc3nc2-1)OCO4 (stereo not shown) ?
Response: 11.1

* * *

# measurement.notes: in vivo
# test.conditions: female, SCID, mouse, HT29 tumor, po
measured.property: Tmax (h)
Give your result in h as a bare value.

Query: So what's the measured Tmax for this one? CCC1(O)C(=O)OCc2c1cc1n(c2=O)Cc2cc3cc4c(cc3nc2-1)OCO4 (stereo not shown)
Response: 1

* * *

# System: P-gp
# measurement.notes: in vitro
# test.conditions: human, Caco-2, pH 7.4, Papp R1, Caco-2; A-to-B; without valspodar
measured.property: Papp A→B at 120 min, 1 μM
Reply with the number and its unit after it.

Query: May I ask what Papp A→B at 120 min, 1 μM has been recorded for CCC1(O)C(=O)OCc2c1cc1n(c2=O)Cc2cc3cc4c(cc3nc2-1)OCO4 (stereo not shown) ?
Response: 7.27 ×10⁻⁶ cm/s

* * *

# Test system: P-gp
# measurement.notes: in vitro
# test.conditions: human, Caco-2, pH 7.4, with valspodar 1 µM, Recovery (%), Caco-2; B-to-A; + 1 μM Valspodar
measured.property: recovery at 120 min, 1 µM (%)
State just the number; it will be interpreted in %.

Query: What does the record list as recovery at 120 min, 1 µM for CCC1(O)C(=O)OCc2c1cc1n(c2=O)Cc2cc3cc4c(cc3nc2-1)OCO4 (stereo not shown) ?
Response: 48

* * *

# measurement.notes: Liver microsome stability
# test.conditions: both, human, microsomes, Half-life, human liver microsome; expressed as > the longest incubation time (60 min)
measured.property: half-life at 0.5 μM

Query: Look at this compound and give its reported half-life at 0.5 μM. CCC1(O)C(=O)OCc2c1cc1n(c2=O)Cc2cc3cc4c(cc3nc2-1)OCO4 (stereo not shown)
Response: > 1 h

* * *

# tgt: ABCG2/BCRP (Homo sapiens)
# Sequence (Q9UNQ0 whole entry): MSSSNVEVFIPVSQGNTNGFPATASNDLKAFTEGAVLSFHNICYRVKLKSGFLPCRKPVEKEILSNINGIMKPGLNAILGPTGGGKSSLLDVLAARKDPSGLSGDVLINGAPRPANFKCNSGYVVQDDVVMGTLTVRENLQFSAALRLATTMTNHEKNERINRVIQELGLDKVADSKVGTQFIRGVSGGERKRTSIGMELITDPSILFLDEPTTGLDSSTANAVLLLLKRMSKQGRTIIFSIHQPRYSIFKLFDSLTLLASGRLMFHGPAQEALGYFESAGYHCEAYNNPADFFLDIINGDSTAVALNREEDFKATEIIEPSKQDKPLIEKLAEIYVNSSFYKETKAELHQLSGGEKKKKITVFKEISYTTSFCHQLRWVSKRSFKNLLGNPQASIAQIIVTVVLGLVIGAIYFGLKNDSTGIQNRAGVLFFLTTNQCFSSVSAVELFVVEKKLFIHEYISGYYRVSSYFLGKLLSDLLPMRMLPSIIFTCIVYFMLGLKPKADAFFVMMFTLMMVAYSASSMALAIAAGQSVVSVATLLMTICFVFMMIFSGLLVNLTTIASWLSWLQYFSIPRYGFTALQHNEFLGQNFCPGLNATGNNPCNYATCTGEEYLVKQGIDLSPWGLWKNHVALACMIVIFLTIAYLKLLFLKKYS
# measurement.notes: in vitro
# test.conditions: Caco-2, pH 7.4, Papp R1, Caco-2, A-to-B, first FL118 entry (without Ko143)
measured.property: Papp A→B at 120 min, 1 μM (×10⁻⁶ cm/s)
Dear colleague, please return just the value in ×10⁻⁶ cm/s, with no unit written.

Query: Give its Papp A→B at 120 min, 1 μM value. Item: CCC1(O)C(=O)OCc2c1cc1n(c2=O)Cc2cc3cc4c(cc3nc2-1)OCO4 (stereo not shown)
Response: 11.2

* * *

# tgt: CYP1A2 (Homo sapiens)
# Sequence (P05177 1-516): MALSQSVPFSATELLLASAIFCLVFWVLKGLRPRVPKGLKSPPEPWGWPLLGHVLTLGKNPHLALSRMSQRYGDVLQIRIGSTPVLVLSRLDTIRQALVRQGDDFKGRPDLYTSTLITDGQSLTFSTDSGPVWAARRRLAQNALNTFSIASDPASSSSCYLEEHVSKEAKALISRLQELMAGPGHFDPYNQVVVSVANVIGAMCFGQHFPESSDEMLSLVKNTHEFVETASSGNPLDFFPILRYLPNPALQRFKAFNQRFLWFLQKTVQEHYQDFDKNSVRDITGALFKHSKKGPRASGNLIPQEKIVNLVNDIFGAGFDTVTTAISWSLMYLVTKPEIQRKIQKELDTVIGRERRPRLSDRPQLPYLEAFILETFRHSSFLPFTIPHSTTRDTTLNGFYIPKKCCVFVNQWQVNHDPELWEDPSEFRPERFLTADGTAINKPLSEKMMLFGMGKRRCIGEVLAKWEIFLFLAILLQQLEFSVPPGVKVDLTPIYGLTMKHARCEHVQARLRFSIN
# measurement.notes: in vitro
# test.conditions: human, microsomes, pH 7.4
measured.property: inhibition at 1 µM

Query: Record CCC1(O)C(=O)OCc2c1cc1n(c2=O)Cc2cc3cc4c(cc3nc2-1)OCO4 (stereo not shown) : what is its inhibition at 1 µM with CYP1A2 (Homo sapiens)?
Response: 0.1%
